tested on: MS2 coat protein; experiment: apparent KD of MS2 coat protein; designed switch direction (-1 OFF switch, 1 ON switch): 1; higher = weaker reporter binding; details: Eterna round: R95; input ligand: microRNA oligo, concentration not stated
MEASURED PARAMETER: apparent KD of MS2 coat protein (nM)
Response body: numeric value in nM, unit text excluded.

{"ENTRY SEQUENCE": "UGGAUCUAGGCUUGCCUGGGUCCAUGCUGACAUGAGGAUCACCCAUGUGCAUUCUAUAAGCUUUUUGCUUGUCAGCU (puzzle: Sensor for hsa-mir-208a)", "STUDY SYSTEM": "MS2 coat protein", "UNITS LABEL": "nM", "apparent KD of MS2 coat protein": 91}
{"ENTRY SEQUENCE": "ACAGCGAAACAUGAGGAUCACCCAUGUAAAGAAUAGGUGAAUUGUUGCUCGUCUUGAAGAGAAGAGAAGAAGGAGAG [Victory 1] (puzzle: Sensor for hsa-mir-208a version 2)", "STUDY SYSTEM": "MS2 coat protein", "UNITS LABEL": "nM", "apparent KD of MS2 coat protein": 101}

// sample AGUCCAGCCUGAGCUGGACAAAAGCAUGUACAUGAGGAUCACCCAUGUCAUGUACAAGCUUUUUGCUAGUCUUAAAA [Mat - hsa-mir-208a - Mod of JL - D12] (puzzle: Sensor for hsa-mir-208a) , its apparent KD of MS2 coat protein was 13.7

Recorded apparent KD of MS2 coat protein (sequence AUAAUAAUAAGUCAGGAUAUGUUGAUAAAGACAUGAGGAUCACCCAUGUGAAAUAAAAUAAUAAUACAGAAGGGACAAUAAUAAA [JMF's solution 3] (puzzle: Same State 2) ): 64

The sequence identified as AGUCCAGCCUGAGCUGGACAAAAGCAUGUACAUGAGGAUCACCCAUGUUCAUGUACAAGCUUUUUGCUCGUCUUAUA [salish99_208a_r3_043] (puzzle: Sensor for hsa-mir-208a) registered its apparent KD of MS2 coat protein at 14.6

---

test system: MS2 coat protein; experiment: apparent KD of MS2 coat protein; higher = weaker reporter binding; conditions: Eterna round: R107; input ligand: arginine 13.2 mM
I would appreciate it if you labelled entries criterion met when apparent KD of MS2 coat protein is 0.04 µM or higher, otherwise criterion not met.

Known results for sequences:
{"ENTRY SEQUENCE": "CACAUGAGGAUCACCCAUGUCUGAACUGAAGGAGCGCUAAACAAGGCAGGUAGGUCGCGGAAUCUUGUGUGCAUAUGCACACGGG [9.S]", "DISCRETE LABEL": "criterion not met"}
{"ENTRY SEQUENCE": "CAUUAUGUAACUGAUACCAGUGUACUGACAUGAGGAUCACCCAUGUUGGGUUUUGUUGUACACCCUUGGCAGCAGAAUCAUAAUG [AstrosExyTheB#2]", "DISCRETE LABEL": "criterion met"}
{"ENTRY SEQUENCE": "UUAAGAGGCUAUCCACUUUGAUUUUGUGAUACCAGAAUAAUUUUAUUCCCUUGGCAGCAUGACAUGAGGAUCACCCAUGUGUCUU [SSTheo A #3]", "DISCRETE LABEL": "criterion not met"}
{"ENTRY SEQUENCE": "GCAUCCUAGUCGGCCGCCACUGCAAUUGUAAUACUGCUACAUGAACAUGAGGAUCACCCAUGUAGCAGGACCGGGACUAGGAUGC [(Trp1)-(TM)''-(TM)'-(Ms2)-(Trp2)_Design9]", "DISCRETE LABEL": "criterion met"}
{"ENTRY SEQUENCE": "AUGUCUGAGUCGGCCGCCACUGGGUGUGGGUGAUGCCGGAUGUUGUACAUGAGGAUCACCCAUGUCAGGACCGGGAUUCCCACGA [Receve]", "DISCRETE LABEL": "criterion not met"}

Ask: Would you say GACGAUAUGAUACGUCAGCAAUCCUCGAAACGAGGACCGGUACGGCCGCCACUCGAGUGAUACACAUGAGGAUCACCCAUGUACC [Tryp A Ex t3] shows apparent KD of MS2 coat protein at minimum 0.04 µM?
Result: criterion not met

Ask: Hi, just wondering whether GGAUAGGACAGAAGGAGCGACAUGAGGAUCACCCAUGUCUACUAGGACGAAAGUCCGUCAUGUCAGGUAGGUCGCUGUCCUAUCG [#29 Exclusion - Arginine B] shows apparent KD of MS2 coat protein of 0.04 µM or higher.
Result: criterion met

Ask: Is apparent KD of MS2 coat protein at least 0.04 µM? Consider ACAUUAGCCACGGCCGCCACUGCCUUAUGAUUAUAAGGAUUAAUGAACAUGAGGAUCACCCAUGUCAGGACCGGGUGCCUACCAU [SSTryp B #5]
Result: criterion not met

Ask: Confirm if apparent KD of MS2 coat protein reported for the sequence GGCUAGUGCAUCGAUACCAGCUACAUGAGGAUCACCCAUGUAGGAAGGGUGGCACUCGAUAGCCCUUGGCAGCGAACACCUCCGG [Cebebion] is 0.04 µM or above.
Result: criterion met

Ask: Say whether GAUGAACUAUUUGAUACCAGACCACAUGAGGAUCACCCAUGUGAGUUUCGUCCUUAGCCGGUCCCUUGGCAGCAAAUAGUUUAUC [#27 Exclusion-TheophyllineB] shows apparent KD of MS2 coat protein of 0.04 µM or more.
Result: criterion not met

Ask: Given the entry GGGCCCGGGCGCGAGCCCGGGCCCAUUGAUACCAGUGAUAUAUGACGCCCUUGGCAGCGAAUCCUAACAUGAGGAUCACCCAUGU [5.H] , answer whether its apparent KD of MS2 coat protein meets or surpasses 0.04 µM.
Result: criterion not met

Ask: Can CACAGUGCGAAAUUGAAUUCGCACGAUCCUCGAGGACCGGUACGGCCGCCACUCGCGCGGGUCGUACAUGAGGAUCACCCAUGUC [Zatiin] be said to have apparent KD of MS2 coat protein at or above 0.04 µM?
Result: criterion met
